Every entry's value here was drawn from patent US11319306B2.

# Study System: human V1a receptor (Homo sapiens, UniProt P37288)
# Construct: host or cells: CHO cells (hV1a cell line)
# Sequence (P37288 whole entry): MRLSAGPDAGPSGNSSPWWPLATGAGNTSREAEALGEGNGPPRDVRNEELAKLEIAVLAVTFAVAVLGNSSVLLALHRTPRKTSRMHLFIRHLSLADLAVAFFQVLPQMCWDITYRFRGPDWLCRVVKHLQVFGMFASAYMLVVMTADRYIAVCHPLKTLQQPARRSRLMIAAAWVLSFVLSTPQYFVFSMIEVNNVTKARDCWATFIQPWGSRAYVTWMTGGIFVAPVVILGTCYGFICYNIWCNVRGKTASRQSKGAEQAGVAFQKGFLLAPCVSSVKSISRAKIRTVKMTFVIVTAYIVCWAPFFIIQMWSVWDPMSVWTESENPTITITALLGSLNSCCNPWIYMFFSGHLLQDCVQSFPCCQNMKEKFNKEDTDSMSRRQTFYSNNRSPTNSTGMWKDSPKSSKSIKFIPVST
# Assay Explanation: Human vasopressin V1a receptor binding assay (3H-AVP competition, hV1a CHO cells)
# Condition Notes: 3H-AVP competition, CHO cells expressing human V1a; read-out: V1a Ki
Please respond with YES when measured Ki is strictly beneath 1 nM, and with NO in all other cases.

Query string: For CN(Cc1cc(Cl)cc(Cl)c1)C(=O)C(CCC(=O)N1CCN(C2CCCCC2)CC1)N1C(=O)C(N2C(=O)OCC2c2ccccc2)C1C=Cc1ccccc1 (centres unmarked) [Example 221E] , is the recorded Ki below the cut-off of 1 nM?
Result string: NO

Query string: Below 1 nM on Ki? Entry O=C(NCc1cccc(C(F)(F)F)c1)[C@@H](CC(=O)N1CCN(N2CCCC2)CC1)N1C(=O)[C@@H](N2C(=O)OC[C@@H]2c2ccccc2)[C@H]1/C=C/c1ccccc1 [Example 134B]
Result string: NO

Query string: Consider O=C(NCc1cccc(C(F)(F)F)c1)C(CCC(=O)N1CCN(CCC2CCCCC2)CC1)N1C(=O)C(N2C(=O)OCC2c2ccccc2)C1C=Cc1ccccc1 (centres unmarked) [Example 111] . Does its Ki lie strictly below 1 nM?
Result string: YES

Query string: Record O=C(NC1(c2ccccc2)CCCCC1)C(CCC(=O)N1CCN(C2CCCCC2)CC1)N1C(=O)C(N2C(=O)OCC2c2ccccc2)C1C=Cc1ccccc1 (centres unmarked) [Example 221G] : is its Ki strictly below 1 nM?
Result string: YES

Query string: Determine whether this compound shows Ki lower than 1 nM (ties excluded): COc1cccc(/C=C/[C@@H]2[C@H](N3C(=O)OC[C@@H]3c3ccccc3)C(=O)N2[C@@H](CCC(=O)N2CCN(C3CCCCC3)CC2)C(=O)N[C@@H]2CCCc3ccccc32)c1 [Example 242]
Result string: NO

* * *

# Study System: human V1a receptor (Homo sapiens)
# Construct: host or cells: CHO cells (hV1a cell line)
# Assay Explanation: Human vasopressin V1a receptor binding assay (3H-AVP competition, hV1a CHO cells)
# Condition Notes: receptor selectivity table; read-out: inhibition data Ki, V1a
Kindly supply the reported Ki values for the records listed here.
Number only, in nM; omit the unit.

Query string: Using the record for C[C@@H](NC(=O)[C@@H](CC(=O)N1CCC(N2CCCCC2)CC1)N1C(=O)[C@@H](N2C(=O)OC[C@@H]2c2ccccc2)[C@H]1/C=C/c1cccc(I)c1)c1ccccc1 [Example 266] , report its Ki.
Result string: 1.1

Query string: Sample CN(Cc1cccc(C(F)(F)F)c1)C(=O)[C@@H](CC(=O)N1CCC(N2CCCCC2)CC1)N1C(=O)[C@@H](N2C(=O)OC[C@@H]2c2ccccc2)[C@H]1/C=C/c1ccccc1 [Example 225] — what was its Ki?
Result string: 0.66

* * *

I'd appreciate it if you could supply pKi values for the items below.
# Study System: human V1a receptor (Homo sapiens, UniProt P37288)
# Construct: host or cells: CHO cells (hV1a cell line)
# Assay Explanation: Human vasopressin V1a receptor binding assay (3H-AVP competition, hV1a CHO cells)
# Condition Notes: 3H-AVP competition, CHO cells expressing human V1a; read-out: V1a Ki
Lab note: report pKi as minus log10 of the concentration in molar units, number only.

Query string: Suppose we examine the compound O=C(NC1(c2cccc(F)c2)CCCC1)C(CCC(=O)N1CCN(C2CCCCC2)CC1)N1C(=O)C(N2C(=O)OCC2c2ccccc2)C1C=Cc1ccccc1 (stereo not shown) [Example 221AM] ; what pKi value has been reported?
Result string: 8.57

Query string: Please give the measured pKi for this compound: O=C(NCc1cc(F)cc(F)c1)[C@H](CCC(=O)N1CCN(C2CCCCC2)CC1)N1C(=O)[C@@H](N2C(=O)OC[C@@H]2c2ccccc2)[C@H]1/C=C/c1ccccc1 [Example 185]
Result string: 9.09

Query string: Which value of pKi has been reported for O=C(NCc1cccc(C(F)(F)F)c1)C(CC(=O)N1CCC(CCN2CCCCC2)CC1)N1C(=O)C(N2C(=O)OCC2c2ccccc2)C1C=Cc1ccccc1 (stereo not shown) [Example 86A] in the records?
Result string: 8.22

Query string: Form field: reported pKi of O=C(NCc1cccc(C(F)(F)F)c1)[C@H](CC(=O)N1CCCN(Cc2ccccc2)CC1)N1C(=O)[C@@H](N2C(=O)OC[C@@H]2c2ccccc2)[C@H]1/C=C/c1ccccc1 [Example 82]
Result string: 8.29

Query string: What value of pKi has been recorded for this entry: O=C(NCc1cccc(C(F)(F)F)c1)C(C(=O)N1CCN(CCc2ccccc2)CC1)N1C(=O)[C@@H](N2C(=O)OC[C@@H]2c2ccccc2)[C@H]1/C=C/c1ccccc1 (mixture of isomers) [Example 38]
Result string: 7.07

Query string: I have this compound here, O=C(NCc1cccc(C(F)(F)F)c1)[C@H](CCC(=O)N1CCN(N2CCCC2)CC1)N1C(=O)[C@@H](N2C(=O)OC[C@@H]2c2ccccc2)[C@H]1/C=C/c1ccccc1 [Example 91] , and I need its recorded pKi.
Result string: 8.70

Query string: Form field: reported pKi of CCCCN1CCN(C(=O)CCC(C(=O)NCc2cccc(C(F)(F)F)c2)N2C(=O)C(N3C(=O)OCC3c3ccccc3)C2C=Cc2ccccc2)CC1 (stereo not shown) [Example 137]
Result string: 7.98
